Measured IC50, listed per entry for reference.
molecular target: DYRK1B (Homo sapiens); construct: purchased Carna Bioscence (Carna Biosciences) 04-131; assay: DYRK1B in vitro kinase assay (ADP-Glo); assay type: biochemical; details: ADP-Glo assay, ATP 15 μM (Km), substrate 7 μM, enzyme 1 nM or 0.3 nM, 1 h, rt; read-out: DYRK1B IC50
Where a name gives a salt, the structure may show the parent alone.

# count of solved cases: 6
[
  {
    "COMPOUND": "C=CCN(C)C(=O)c1cnc2[nH]cc(-c3cc(OC)c4ncccc4c3)c2c1 [Example 26]",
    "IC50": "> 100 nM"
  },
  {
    "COMPOUND": "Cc1cc(-c2c[nH]c3ncccc23)cc2c(-c3cccnc3)ccnc12 [Example 18]",
    "IC50": "10 to 100 nM"
  },
  {
    "COMPOUND": "C=CCN(C)C(=O)c1cnc2[nH]cc(-c3cc(F)c4nccc(-c5cccnc5)c4c3)c2c1 [Example 38]",
    "IC50": "< 10 nM"
  },
  {
    "COMPOUND": "Nc1cnc2ccc(-c3c[nH]c4ncc(C(=O)NCc5cccnc5)cc34)cc2c1 [Example 61]",
    "IC50": "< 10 nM"
  },
  {
    "COMPOUND": "CN1CCC(Nc2ccnc3ccc(-c4c[nH]c5ncccc45)cc23)CC1 [Example 10]",
    "IC50": "10 to 100 nM"
  },
  {
    "COMPOUND": "CNC(=O)c1cnc2[nH]cc(-c3cc(F)c4ncccc4c3)c2c1 [Example 30]",
    "IC50": "< 10 nM"
  }
]

Prompt: Given NCCCNC(=O)c1cnc2[nH]cc(-c3cc(Cl)c4ncccc4c3)c2c1 [Example 34, hydrochloride] , state its recorded IC50.
Completion: < 10 nM

Prompt: Here is the next compound: Fc1cc(-c2c[nH]c3ncccc23)cc2cccnc12 [Example 13]
Completion: < 10 nM

Prompt: What about this compound? FC(F)(F)Oc1cc(-c2c[nH]c3ncccc23)cc2cccnc12 [Example 14]
Completion: 10 to 100 nM

---

UniProtKB Q13627 measurements of IC50, listed per entry.
Where a name gives a salt, the structure may show the parent alone.

Prompt: Any idea what IC50 was measured for CNC(=O)c1cnc2[nH]cc(-c3ccc4ncc(NCC5CCOCC5)c(N5CCOCC5)c4c3)c2c1 [Example 58] ?
Completion: 0.01 to 0.1 µM

Prompt: What do you get for CNC(=O)c1cnc2[nH]cc(-c3ccc4ncc(NCc5cccc(Cl)c5)c(N5CCOCC5)c4c3)c2c1 [Example 56] ?
Completion: 0.01 to 0.1 µM

Prompt: // repeat for NCCCNC(=O)c1cnc2[nH]cc(-c3cc(Cl)c4ncccc4c3)c2c1 [Example 34, hydrochloride] and report
Completion: < 0.01 µM

Prompt: Please do the same for CC(=O)N1CCC(Nc2c(N)cnc3ccc(-c4c[nH]c5ncccc45)cc23)CC1 [Example 66] as well.
Completion: < 0.01 µM

---

biological target: DYRK1B (Homo sapiens); construct: purchased Carna Bioscence (Carna Biosciences) 04-131; assay: DYRK1B in vitro kinase assay (ADP-Glo); assay type: biochemical
pIC50: −log10 of the molar value. Structures can show the parent of a compound that is named as a salt.
PROPERTY NAME: pIC50

Prompt: GET /values?readout=pIC50&item= Cc1cc(-c2c[nH]c3ncccc23)cc2cccnc12 [Example 12, hydrochloride]
Completion: 7.00 to 8.00

---

Property: pIC50; scope: individual compounds
target: DYRK1B (Homo sapiens); construct: purchased Carna Bioscence (Carna Biosciences) 04-131; assay: DYRK1B in vitro kinase assay (ADP-Glo); format: biochemical; conditions: ADP-Glo assay, ATP 15 μM (Km), substrate 7 μM, enzyme 1 nM or 0.3 nM, 1 h, rt; read-out: DYRK1B IC50
pIC50: −log10 of the molar value.

Prompt: What does the record list as pIC50 for C=CC1CN2CCC1CC2[C@H](O)c1ccnc2ccc(-c3c[nH]c4ncccc34)cc12 (stereo in doubt) [Example 9] ?
Completion: > 8.00

---

Target: DYRK1B (Homo sapiens, UniProt Q9Y463)
Construct: purchased Carna Bioscence (Carna Biosciences) 04-131
Sequence (Q9Y463 whole entry): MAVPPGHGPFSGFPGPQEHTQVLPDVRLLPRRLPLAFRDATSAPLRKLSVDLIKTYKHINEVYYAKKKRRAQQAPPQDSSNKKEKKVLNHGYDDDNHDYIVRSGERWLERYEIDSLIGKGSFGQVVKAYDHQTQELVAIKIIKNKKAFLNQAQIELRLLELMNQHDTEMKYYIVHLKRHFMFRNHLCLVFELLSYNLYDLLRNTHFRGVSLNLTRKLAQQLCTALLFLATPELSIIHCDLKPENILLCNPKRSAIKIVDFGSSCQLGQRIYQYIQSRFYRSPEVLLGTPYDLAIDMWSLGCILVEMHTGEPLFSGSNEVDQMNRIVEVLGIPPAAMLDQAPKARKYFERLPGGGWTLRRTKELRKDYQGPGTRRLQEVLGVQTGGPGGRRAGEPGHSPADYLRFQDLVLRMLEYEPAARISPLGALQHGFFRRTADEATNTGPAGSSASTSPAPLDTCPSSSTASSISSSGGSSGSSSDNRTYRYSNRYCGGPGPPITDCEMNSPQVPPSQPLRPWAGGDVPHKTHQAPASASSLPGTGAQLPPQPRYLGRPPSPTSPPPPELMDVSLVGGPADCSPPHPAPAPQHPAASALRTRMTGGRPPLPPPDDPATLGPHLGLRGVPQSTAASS
Test: DYRK1B in vitro kinase assay (ADP-Glo)
Format: biochemical
Conditions: ADP-Glo assay, ATP 15 μM (Km), substrate 7 μM, enzyme 1 nM or 0.3 nM, 1 h, rt; read-out: DYRK1B IC50
Protocol: The compounds of the present invention were tested for their inhibitory activity against DYRK1A and DYRK1B kinases once or several times. […] 60 μL of Kinase Detection Solution was then added to each well of 96-well plate containing 60 μL of the solution to convert ADP to ATP and to allow the newly synthesized ATP to be measured using a luciferase/luciferin reaction (ratio of kinase reaction volume to ADP Glo™ Reagent volume to Kinase Detection Solution volume was maintained at 1:1:2). […]
pIC50: −log10 of the molar value. Where a name gives a salt, the structure may show the parent alone.
PROPERTY NAME: pIC50

[
  {
    "MOLECULE": "Cc1cc(-c2c[nH]c3ncccc23)cc2c(-c3ccccc3)ccnc12 [Example 17]",
    "pIC50": "< 7.00"
  }
]

Prompt: Record request: pIC50 value, item c1cnc2[nH]cc(-c3ccc4nccc(-c5ccncc5)c4c3)c2c1 [Example 7]
Completion: > 8.00

Prompt: Now consider N[C@H]1CC[C@H](Nc2c([N+](=O)[O-])cnc3ccc(-c4c[nH]c5ncc(C(=O)NCc6cccnc6)cc45)cc23)CC1 [Example 59, hydrochloride] .
Completion: 7.00 to 8.00

Prompt: What about NC(=O)c1cnc2[nH]cc(-c3cc(F)c4ncccc4c3)c2c1 [Example 33] ?
Completion: > 8.00

Prompt: Another molecule to look at: C=CCN(C)Cc1cnc2[nH]cc(-c3cc(F)c4nccc(-c5cccnc5)c4c3)c2c1 [Example 52]
Completion: > 8.00

Prompt: Then O=C(NCc1cccnc1)c1cnc2[nH]cc(-c3ccc4ncc(NCC5CCOCC5)cc4c3)c2c1 [Example 63] ?
Completion: > 8.00

Prompt: // same read-out, input: CNC(=O)c1cnc2[nH]cc(-c3ccc4ncc(NCc5cccc(Cl)c5)c(N5CCC[C@H](N)C5)c4c3)c2c1 [Example 55, hydrochloride]
Completion: > 8.00

Prompt: Please give the result for Fc1cc(-c2c[nH]c3ncccc23)cc2c(-c3cccnc3)ccnc12 [Example 19] too.
Completion: > 8.00

---

Where a name gives a salt, the structure may show the parent alone.
Let's go through some recorded IC50 values for DYRK1A (Homo sapiens, UniProt Q13627) together.

Prompt: Look up IC50: N[C@@H]1CCCN(c2ccnc3c(F)cc(-c4c[nH]c5ncc(C(=O)NCc6cncnc6)cc45)cc23)C1 [Example 49, hydrochloride]
Completion: < 10 nM

---

target: DYRK1A (Homo sapiens, UniProt Q13627)
pIC50: −log10 of the molar value. Counter-ions that a name gives are not always drawn.
Examples of compounds with documented pIC50 follow.

Worked cases, answers included:
[
  {
    "COMPOUND": "CN1CCC(N(C)c2c([N+](=O)[O-])cnc3ccc(-c4c[nH]c5ncccc45)cc23)CC1",
    "pIC50": "7.00 to 8.00"
  },
  {
    "COMPOUND": "CNC(=O)c1cnc2[nH]cc(-c3cc(F)c4nccc(N5CCC[C@H](N)C5)c4c3)c2c1 [Example 43, hydrochloride]",
    "pIC50": "> 8.00"
  },
  {
    "COMPOUND": "FC(F)(F)Oc1cc(-c2c[nH]c3ncccc23)cc2cccnc12",
    "pIC50": "< 7.00"
  },
  {
    "COMPOUND": "O=C(NCc1ccccc1)c1cnc2[nH]cc(-c3cc(F)c4ncccc4c3)c2c1",
    "pIC50": "> 8.00"
  },
  {
    "COMPOUND": "c1cnc2ccc(-c3c[nH]c4ncccc34)cc2c1",
    "pIC50": "> 8.00"
  },
  {
    "COMPOUND": "CNC(=O)c1cnc2[nH]cc(-c3cc(F)c4nccc(-c5cnccc5C)c4c3)c2c1",
    "pIC50": "> 8.00"
  },
  {
    "COMPOUND": "CC(=O)Nc1cnc2ccc(-c3c[nH]c4ncc(C(=O)NCc5cccnc5)cc34)cc2c1",
    "pIC50": "> 8.00"
  },
  {
    "COMPOUND": "C=CC1CN2CCC1CC2[C@H](O)c1ccnc2ccc(-c3c[nH]c4ncccc34)cc12 (stereo in doubt)",
    "pIC50": "> 8.00"
  },
  {
    "COMPOUND": "CNC(=O)c1cnc2[nH]cc(-c3cc(F)c4nccc(N5CCC[C@@H](N)C5)c4c3)c2c1 [Example 41, hydrochloride]",
    "pIC50": "> 8.00"
  }
]

Prompt: Any idea what pIC50 was measured for CNC(=O)c1cnc2[nH]cc(-c3ccc4ncccc4c3)c2c1 ?
Completion: > 8.00
